Test system: NO production in LPS-induced RAW 264.7 cells
Assay: Inhibitory effect on NO production in LPS-induced RAW 264.7 cells (Griess reagent)
Assay type: cell-based
Settings: Mus musculus, RAW264.7; investigated compounds; LPS (1 µg/mL)-induced RAW 264.7 cells, 24 h
Protocol: The culture medium was replaced with DMEM medium containing various concentrations of TGT or target compound, subsequently treated with LPS (1 µg/mL), and then incubated for 24 h. […] The absorbance at 540 nm was determined using a microplate reader (PerkinElmer, Waltham, MA, USA). The concentration of NO in the culture supernatants was calculated by using a standard curve of nitrite, a major stable product of NO, which was generated according to the application instructions for the Griess reagent.
Outcome Measure: IC50

INSERT INTO results (compound, result) VALUES
  ('CC(=O)OCC12C(OC(C)=O)C(OC(C)=O)C3C(OC(C)=O)C14OC3(C)COC(=O)c1cnccc1C(C)C(C)C(=O)OC(C(OC(C)=O)C2OC(C)=O)C4(C)O (stereo not drawn)', '> 50 µM');

Item under review: CC(=O)OC[C@]12[C@H](OC(C)=O)[C@H](OC(C)=O)[C@@H]3[C@@H](OC(C)=O)[C@@]14O[C@@]3(C)COC(=O)c1cccnc1C(C)C(C)C(=O)O[C@@H]([C@H](OC(C)=O)[C@@H]2OC(C)=O)[C@]4(C)O (stereo partly drawn) . Reported IC50? > 50 µM

For the compound CC(=O)OCC12C(OC(C)=O)C(OC(C)=O)C3C(O)C14OC3(C)COC(=O)c1cccnc1C(C)C(C)C(=O)OC(C(OC(C)=O)C2OC(C)=O)C4(C)O (stereo not drawn) , what IC50 is on record? > 50 µM

Given CC(=O)OC[C@]12[C@H](OC(C)=O)[C@H](OC(C)=O)[C@@H]3[C@@H](OC(C)=O)[C@@]14O[C@@]3(C)COC(=O)c1cccnc1CCC(C)(O)C(=O)O[C@@H]([C@H](OC(=O)c1ccco1)[C@@H]2OC(C)=O)[C@]4(C)O (stereo partly drawn) , state its recorded IC50. > 50 µM

// query IC50 value for entry CC1(C)[C@@H](O)CC[C@]2(C)[C@H]3CC=C4[C@@H]5C[C@@]6(C)C[C@H](OC6=O)[C@]5(C)CC[C@@]4(C)[C@]3(C)CC[C@@H]12 [wilforlide A] > 50 µM

Fill blank: measured IC50 of the compound C[C@@]1(O)C[C@@]23CC[C@H]4[C@@]5(CCC[C@]4(C)C(=O)OC5)[C@@H]2CC[C@H]1C3 is ____. > 50 µM
